B1: Pistol ribozyme (parent)
chain: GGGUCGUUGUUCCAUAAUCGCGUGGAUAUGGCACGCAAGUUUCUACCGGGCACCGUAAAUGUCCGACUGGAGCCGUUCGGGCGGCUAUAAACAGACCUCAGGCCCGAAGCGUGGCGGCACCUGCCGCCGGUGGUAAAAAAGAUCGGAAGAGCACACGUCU

Variants of: B1
assay.summary: aptazyme ON/OFF ratio, guanine; higher = stronger switching; co-transcriptional cleavage with and without guanine
I'd be grateful if you could share measured aptazyme ON/OFF ratio for these entries.
Answers are plain numbers.

Reference set, count: 6
>>> print(df.to_string())
                           variant  experimental_value
0                     U7A U8G C12G                1.27
1                U7A G9U C12G C13A                 1.2
2           U7A G9U U10C U11C C12A                1.09
3       U7A U8A G9C U10C C12A C13G                1.04
4  U7A U8G G9C U10G U11G C12G C13G                1.24
5  U7A U8A G9C U10A U11A C12U C13G                1.18

Need aptazyme ON/OFF ratio for each of these variants.
1. U7A U8C G9A U10A C13G
2. U10A U11A C12G C13G
3. U8G U10C U11G C12A C13U
4. U7A U10A U11A C12G C13G
5. U7G U8C G9C U10C U11C C13G
6. U8A G9U U10C C12A C13A
7. U7G G9C U10G C12U C13G

Ans.
1. 1.07
2. 1.3
3. 1.2
4. 1.46
5. 1.36
6. 1.09
7. 1.38
